# Tgt: T1, human c-Met (HGFR), full length, on the cell surface (human, UniProt P08581 25-1390)
# T1 construct: Endogenous c-Met on human tumor cell lines MKN45, NCI-H596, PC-3 and HepG2; also called hepatocyte growth factor receptor; mesenchymal-epithelial transition factor
# Experimental Protocol: flow cytometry, NCI-H596 cells, without HGF
Property Label: EC50 (µg/mL)
Response body: numeric value in µg/mL, unit text excluded.

binder="mAb3a (antibody, human IgG1, kappa, V domains shown, Humanized IgG1 kappa, HC-41C, from wt/41C-chi-mAb3; also called humanized HC-41C antibody mAb3a) VH: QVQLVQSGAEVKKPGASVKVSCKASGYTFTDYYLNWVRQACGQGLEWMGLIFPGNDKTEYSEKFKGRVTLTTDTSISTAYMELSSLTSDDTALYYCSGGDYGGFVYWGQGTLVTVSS VL: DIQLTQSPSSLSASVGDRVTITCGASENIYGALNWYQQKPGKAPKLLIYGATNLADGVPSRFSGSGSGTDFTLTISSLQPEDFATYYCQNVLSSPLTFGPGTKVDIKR" property_label=EC50 recorded_measurement=0.02
binder="mAb1a (antibody, human IgG1, kappa, V domains shown, Humanized IgG1 kappa, HC-41C, from wt/41C-chi-mAb1; also called humanized HC-41C antibody mAb1a; mAbla) VH: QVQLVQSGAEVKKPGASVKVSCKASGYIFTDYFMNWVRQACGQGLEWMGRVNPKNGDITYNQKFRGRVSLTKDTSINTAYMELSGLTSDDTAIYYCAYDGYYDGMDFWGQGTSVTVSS VL: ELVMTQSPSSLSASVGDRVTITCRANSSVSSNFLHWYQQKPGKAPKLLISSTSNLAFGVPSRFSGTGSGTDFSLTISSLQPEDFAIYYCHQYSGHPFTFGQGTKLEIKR" property_label=EC50 recorded_measurement=0.04
binder="mAb3e (antibody, human IgG1, kappa, V domains shown, Humanized IgG1 kappa, HC-41C, from wt/41C-chi-mAb3; also called humanized HC-41C antibody mAb3e) VH: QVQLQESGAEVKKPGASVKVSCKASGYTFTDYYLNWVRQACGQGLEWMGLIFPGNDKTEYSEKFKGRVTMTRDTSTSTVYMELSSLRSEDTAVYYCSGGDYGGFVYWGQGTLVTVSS VL: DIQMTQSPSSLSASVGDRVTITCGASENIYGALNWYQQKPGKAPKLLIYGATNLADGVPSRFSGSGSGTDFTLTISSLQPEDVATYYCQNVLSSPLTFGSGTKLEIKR" property_label=EC50 recorded_measurement=0.02
binder="mAb3c (antibody, human IgG1, kappa, V domains shown, Humanized IgG1 kappa, HC-41C, from wt/41C-chi-mAb3; also called humanized HC-41C antibody mAb3c) VH: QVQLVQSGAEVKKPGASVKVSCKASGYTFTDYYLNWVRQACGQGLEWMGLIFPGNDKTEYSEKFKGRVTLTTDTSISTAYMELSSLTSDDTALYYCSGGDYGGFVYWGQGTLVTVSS VL: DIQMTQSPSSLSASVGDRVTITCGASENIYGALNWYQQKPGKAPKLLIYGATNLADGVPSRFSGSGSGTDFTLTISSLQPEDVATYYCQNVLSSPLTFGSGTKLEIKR" property_label=EC50 recorded_measurement=0.02
binder="mAb3d (antibody, human IgG1, kappa, V domains shown, Humanized IgG1 kappa, HC-41C, from wt/41C-chi-mAb3; also called humanized HC-41C antibody mAb3d) VH: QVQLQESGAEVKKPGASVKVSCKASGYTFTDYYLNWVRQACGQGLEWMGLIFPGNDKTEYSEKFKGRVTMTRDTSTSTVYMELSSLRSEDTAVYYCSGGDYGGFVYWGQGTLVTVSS VL: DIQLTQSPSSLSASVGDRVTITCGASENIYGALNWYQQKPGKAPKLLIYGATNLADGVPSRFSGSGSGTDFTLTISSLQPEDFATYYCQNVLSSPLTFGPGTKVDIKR" property_label=EC50 recorded_measurement=0.02

Recall and state the measured EC50 for mAb3b (antibody, human IgG1, kappa, V domains shown, Humanized IgG1 kappa, HC-41C, from wt/41C-chi-mAb3; also called humanized HC-41C antibody mAb3b) VH: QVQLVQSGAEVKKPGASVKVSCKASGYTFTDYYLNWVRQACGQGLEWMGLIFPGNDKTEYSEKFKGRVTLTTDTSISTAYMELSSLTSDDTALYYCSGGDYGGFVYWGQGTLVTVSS VL: DIQMTQSPSSLSASVGDRVTISCGASENIYGALNWYQQQPGKAPKVLIFGATNLADGVPSRFSGSGSGTDFTLTISSLQPEDFATYYCQNVLSSPLTFGQGTKLEIKR .
0.02

Recall and state the measured EC50 for mAb2c (antibody, human IgG1, kappa, V domains shown, Humanized IgG1 kappa, HC-41C, from wt/41C-chi-mAb2; also called humanized HC-41C antibody mAb2c) VH: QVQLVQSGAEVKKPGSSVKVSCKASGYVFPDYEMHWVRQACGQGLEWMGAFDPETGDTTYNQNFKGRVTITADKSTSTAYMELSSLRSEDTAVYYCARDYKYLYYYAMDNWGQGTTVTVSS VL: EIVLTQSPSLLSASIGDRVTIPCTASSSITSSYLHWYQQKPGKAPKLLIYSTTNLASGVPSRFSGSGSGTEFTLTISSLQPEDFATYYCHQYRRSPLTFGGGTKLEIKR .
0.03

Recall and state the measured EC50 for mAb2b (antibody, human IgG1, kappa, V domains shown, Humanized IgG1 kappa, HC-41C, from wt/41C-chi-mAb2; also called humanized HC-41C antibody mAb2b) VH: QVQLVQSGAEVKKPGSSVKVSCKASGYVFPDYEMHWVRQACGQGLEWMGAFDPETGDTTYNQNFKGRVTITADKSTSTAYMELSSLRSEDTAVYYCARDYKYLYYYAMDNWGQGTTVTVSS VL: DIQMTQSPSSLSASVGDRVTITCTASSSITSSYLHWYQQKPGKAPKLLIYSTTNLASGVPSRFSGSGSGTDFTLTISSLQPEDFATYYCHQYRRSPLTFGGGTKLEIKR .
0.04

Recall and state the measured EC50 for mAb2a (antibody, human IgG1, kappa, V domains shown, Humanized IgG1 kappa, HC-41C, from wt/41C-chi-mAb2; also called humanized HC-41C antibody mAb2a) VH: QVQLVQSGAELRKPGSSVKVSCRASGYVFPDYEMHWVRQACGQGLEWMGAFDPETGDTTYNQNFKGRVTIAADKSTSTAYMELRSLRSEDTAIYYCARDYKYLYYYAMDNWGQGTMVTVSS VL: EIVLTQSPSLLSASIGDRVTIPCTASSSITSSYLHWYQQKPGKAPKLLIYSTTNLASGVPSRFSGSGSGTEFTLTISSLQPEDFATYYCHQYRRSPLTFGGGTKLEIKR .
0.02
